Observed log10(IC50) for hPRDM9 (amino acids 195-385) (Homo sapiens, UniProt Q9NQV7), reported per entry below.
The base-10 logarithm of IC50, taken with IC50 in µM, is what appears here.

Example results:
COc1cc(OC)cc(-c2noc(N3CCCC4(CCN(c5cc(C)nc(F)c5)CC4)C3)n2)c1 [Compound 188]; 1.65
Cc1cc(N2CC3(CCCN(c4nc(-c5cc(Cl)cc(Cl)c5)co4)C3)C2)ccn1 [Compound 118]; 1.22
COc1ccccc1-c1c(-c2cc(Cl)cc(Cl)c2)noc1N1CCCC2(CN(c3ccnc(C)c3)C2)C1 [Compound 124]; 1.25
Cc1cc(N2CCC(CNc3nc(-c4cc(Cl)cc(Cl)c4)no3)C2)ccn1 (stereo not drawn) [Compound 215]; 1.04
Cc1cc(N2CCC(O)(CNc3nc(-c4cc(Cl)cc(Cl)c4)no3)C2)ccn1 (stereo not drawn) [Compound 56]; 1.45
Cc1cc(N2CC[C@@H]3CN(c4nc(-c5cc(Cl)cc(Cl)c5)no4)C[C@@H]3C2)ccn1 [Compound 1]; 0.71

Item Cc1cc(N2CC3(CCCN(c4nc(-c5ccccc5)no4)C3)C2)ccn1 [Compound 138] has what recorded log10(IC50)?
0.68

Fill in: log10(IC50) of CC(C)c1cc(N2CC3(CCCN(c4nc(-c5cc(Cl)cc(Cl)c5)no4)C3)C2)ccn1 [Compound 206] is ___
0.20

Please look up its log10(IC50): Cc1cc(NCC2CN(c3nc(-c4cc(Cl)cc(Cl)c4)no3)CCC2C)ccn1 (stereo not drawn) [Compound 176]
1.13

# get_value(readout='log10(IC50)', item= COc1cc(OC)cc(-c2noc(NCC3(O)CN(c4ccnc(C)c4)C3)n2)c1 [Compound 247] )
-0.19

Consider the molecule COC(=O)c1cccc(-c2cc(N3CCCC4(CN(c5ccnc(C)c5)C4)C3)on2)c1 [Compound 129] and give its measured log10(IC50).
1.28

For the molecule shown here, COc1cc(OC)cc(-c2noc(N3CCN(C)C4(CCN(c5ccnc(C)c5)CC4)C3)n2)c1 [Compound 161] , give the reported log10(IC50).
-1.31

What does the data say about its log10(IC50)? Entry: Cc1cc(N2CCC3(CC2)CN(c2nc(-c4cc(OC(C)C)cc(OC(C)C)c4)no2)CCN3C)ccn1 [Compound 97]
0.14

log10(IC50) for Cc1cc(N2CC3(CCCN(c4cc(-c5cc(Cl)cc(Cl)c5)ccn4)C3)C2)ccn1 [Compound 137] ?
1.33

Need log10(IC50), item Cc1cc(N2CC(CCNc3nc(-c4cc(Cl)cc(Cl)c4)no3)C2)ccn1 [Compound 52]
1.47

Param item = Cc1cc(NC[C@H]2CCN(c3nc(-c4cc(Cl)cc(Cl)c4)no3)C2)ccn1 [Compound 81] ; retrieve measured log10(IC50).
1.12

Reported log10(IC50), molecule Clc1cc(Cl)cc(-c2noc(N3CCCC4(CN(c5cnccn5)C4)C3)n2)c1 [Compound 202] : ____
0.30

Field request: log10(IC50) | item: Cc1cc(N2CC3(CCCN(c4cc(-c5cccc(F)c5F)n[nH]4)C3)C2)ccn1 [Compound 128]
1.37
